This document collects pIC50 values reported for NAALADase (Homo sapiens).
Answers are plain numbers, as −log10 of the molar value.

Would you please look over these solved cases?
INSERT INTO results (molecule, assaytarget, result) VALUES
  ('O=C(O)CCC(C(=O)O)C(=O)NO (centres unmarked) [Compound 86]', 'NAALADase (Homo sapiens)', 5.40),
  ('O=CN(O)CCC(Cc1cccc(C(=O)O)c1)C(=O)O (centres unmarked) [Compound 78]', 'NAALADase (Homo sapiens)', 4.99);

Quick batch: pIC50 for everything below.
1. O=C(CCC(Cc1cccc(-c2cccc(C(=O)O)c2)c1)C(=O)O)NO (centres unmarked) [Compound 72]
2. O=C(CCC(Cc1ccc(C(=O)O)cc1)C(=O)O)NO (centres unmarked) [Compound 75]

[7.30, 7.52]

Quick batch: pIC50 for everything below.
1. O=C(Cc1ccc(CC(Cc2cccc(C(=O)O)c2)C(=O)O)cc1)NO (centres unmarked) [Compound 90]
2. O=CN(O)CCCC(Cc1cccc(C(=O)O)c1)C(=O)O (centres unmarked) [Compound 77]
3. O=C(CSCCCC(Cc1ccc(C(=O)O)c(Br)c1)C(=O)O)NO (centres unmarked) [Compound 65]

1: 4.59; 2: 5.65; 3: 5.52

Quick batch: pIC50 for everything below.
1. O=C(CCC(Cc1ccccc1C(=O)O)C(=O)O)NO (centres unmarked) [Compound 73]
2. O=C(O)CNC(=O)c1cc(C(=O)O)cc(C(=O)NO)c1 [Compound 81]
3. O=C(O)CCC(Cc1cccc(C(=O)NO)c1)C(=O)O (centres unmarked) [Compound 94]
4. O=CN(O)CCCCC(Cc1cccc(C(=O)O)c1)C(=O)O (centres unmarked) [Compound 76]

5.70
5.05
4.40
4.00
